assay: Part 1: mobocertinib-itraconazole DDI study, plasma PK; format: in vivo, human; details: human, plasma, oral, 20 mg, AUC0-∞, Arithmetic Means (SD), mobocertinib 20 mg alone (reference), plasma; footnote a: mean (%CV)
measure: AUC(0-inf) (ng·h/mL)
Express the result in ng·h/mL but write the number alone.

What value of measured AUC(0-inf) is listed for `C=CC(=O)Nc1cc(Nc2ncc(C(=O)OC(C)C)c(-c3cn(C)c4ccccc34)n2)c(OC)cc1N(C)CCN(C)C` ?
113

----------
assay: Part 1: mobocertinib-itraconazole DDI study, plasma PK; type: in vivo, human; conditions: human, plasma, oral, 20 mg, t½, Geometric Means (%CV), mobocertinib 20 mg alone (reference)
measure: half-life (h)
Response body: numeric value in h, unit text excluded.

Fill blank: measured half-life of the compound `C=CC(=O)Nc1cc(Nc2ncc(C(=O)OC(C)C)c(-c3cn(C)c4ccccc34)n2)c(OC)cc1N(C)CCN(C)C` is ____.
21.2
